Each recorded value in this set is attributed to paper PMC7426938.

Documented Mean survival rate of zebrafish embryos across a set of molecules
system: zebrafish (ABiC) embryos; test: Zebrafish embryo developmental toxicity assay; format: in vivo, zebrafish (Danio rerio); design: unit not given here; conditions: 48 hpf, 100 μM
Write the value as a bare number.

The cases that follow already have their Mean survival rate of zebrafish embryos on record.
[[record]]
molecular_string = "O=C1N[C@@H](Cc2ccccc2)C(=O)N2CCC[C@@H]12"
assayed_system = "zebrafish (ABiC) embryos"
value = 80

[[record]]
molecular_string = "CC(C)[C@@H]1NC(=O)[C@@H]2CCCN2C1=O"
assayed_system = "zebrafish (ABiC) embryos"
value = 80

[[record]]
molecular_string = "CC(C)C[C@@H]1NC(=O)[C@@H]2CCCN2C1=O"
assayed_system = "zebrafish (ABiC) embryos"
value = 71.11


Recorded Mean survival rate of zebrafish embryos (molecule O=C1N[C@@H](Cc2ccc(O)cc2)C(=O)N2CCC[C@@H]12 ): 81
